This collection of values is drawn from paper PMC7732531.

test: in vivo; conditions: male, Sprague-Dawley (SD), rat, po, 1 mg/kg, AUC
readout: AUC (ng·h/mL)
Number only, in ng·h/mL; omit the unit.

CCN(Cc1ccccn1)C(=O)Cc1c(-c2ccc(Cl)c(Cl)c2)nc2cc(C)ccn12 yielded AUC of 441

* * *

assay: in vitro; assay type: in vitro ADME; conditions: human, plasma
readout: fraction unbound at 4 h, 1 µM
Just the number, please, no unit attached.

CCN(Cc1ccccn1)C(=O)Cc1c(-c2ccc(Cl)c(Cl)c2)nc2cc(C)ccn12 yielded fraction unbound at 4 h, 1 µM of 0.001

* * *

assay: Pharmacokinetics in rats with ABT pretreatment (intestinal and hepatic availability); conditions: rat, plasma, oral, 1 mg/kg, Plasma concentration, rats, p.o. 100 mg/kg ABT, p.o. 1 mg/kg YL-IPA08, 12 h
readout: concentration at 12 h (ng/mL)
Number only, in ng/mL; omit the unit.

CCN(Cc1ccccn1)C(=O)Cc1c(-c2ccc(Cl)c(Cl)c2)nc2cc(C)ccn12 yielded concentration at 12 h of 17.4

* * *

experiment: Bioavailability study in rats (i.v. and p.o.); type: in vivo; details: male, SD, rat, plasma, po, p.o. 3 mg/kg, 2 h
readout: concentration at 2 h (ng/mL)
Number only, in ng/mL; omit the unit.

CCN(Cc1ccccn1)C(=O)Cc1c(-c2ccc(Cl)c(Cl)c2)nc2cc(C)ccn12 yielded concentration at 2 h of 4.07

* * *

assay: in vivo; conditions: male, SD, rat, po, 1 mg/kg, Plasma concentration
readout: concentration at 2 h (ng/mL)
Number only, in ng/mL; omit the unit.

CCN(Cc1ccccn1)C(=O)Cc1c(-c2ccc(Cl)c(Cl)c2)nc2cc(C)ccn12 [YL-IPA08] yielded concentration at 2 h of 78.3

* * *

test: Pharmacokinetics in rats with ABT pretreatment (intestinal and hepatic availability); conditions: rat, plasma, intravenous, Plasma concentration, rats, i.v. 50 mg/kg ABT, i.v. 0.5 mg/kg YL-IPA08, 0.25 h
readout: concentration at 0.25 h (ng/mL)
Number only, in ng/mL; omit the unit.

CCN(Cc1ccccn1)C(=O)Cc1c(-c2ccc(Cl)c(Cl)c2)nc2cc(C)ccn12 yielded concentration at 0.25 h of 208

* * *

assay: Pharmacokinetics in rats with ABT pretreatment (intestinal and hepatic availability); details: rat, plasma, oral, Plasma concentration, rats, p.o. 100 mg/kg ABT, p.o. 1 mg/kg YL-IPA08, 0.25 h
readout: concentration at 0.25 h (ng/mL)
Number only, in ng/mL; omit the unit.

CCN(Cc1ccccn1)C(=O)Cc1c(-c2ccc(Cl)c(Cl)c2)nc2cc(C)ccn12 yielded concentration at 0.25 h of 403

* * *

Reported Papp A→B at 120 min, 10 μM values for the following molecules.
test: Transcellular transport experiment with Caco-2 cells; conditions: human, Caco-2
Answer with the value and then the unit.

See these solved cases before continuing.
INSERT INTO measurements (molecule, readout, value) VALUES
  ('CC(C)NCC(O)COc1cccc2ccccc12 (stereo not drawn) [Propranolol]', 'Papp A→B at 120 min, 10 μM', '4.35 ×10⁻⁶ cm/s'),
  ('CCN(Cc1ccccn1)C(=O)Cc1c(-c2ccc(Cl)c(Cl)c2)nc2cc(C)ccn12 [YL-IPA08]', 'Papp A→B at 120 min, 10 μM', '3.99 ×10⁻⁶ cm/s');

Here's the next entry for you.
C[C@H]1O[C@@H](O[C@H]2[C@@H](O)C[C@H](O[C@H]3[C@@H](O)C[C@H](O[C@H]4CC[C@@]5(C)[C@H](CC[C@@H]6[C@@H]5C[C@@H](O)[C@]5(C)[C@@H](C7=CC(=O)OC7)CC[C@]65O)C4)O[C@@H]3C)O[C@@H]2C)C[C@H](O)[C@@H]1O [Digoxin] yielded Papp A→B at 120 min, 10 μM of 0.45 ×10⁻⁶ cm/s
